Reference for the values: patent US8324406B2

# System: HT29
# ASSAY_PROCEDURE: cells
# Format: cell-based
# CONDITION_PARAMETERS: Homo sapiens, HT-29; HT29, 48 hours exposure, SRB; 50% net cell killing (cytotoxic effect); read-out: LC50 (the source's name)
# CC50 per entry

[
  {
    "COMPOUND": "C/C=C\\C[C@H](O)C/C=C\\NC(=O)[C@@H](NC(=O)\\C=C/C=C\\C(C)=C\\[C@H](C)[C@@H]1CC=C(OC)C(=O)O1)C(C)(C)C [Compound 30b]",
    "CC50": "4.73 µM"
  },
  {
    "COMPOUND": "COC1=CC[C@@H]([C@@H](C)/C=C(C)/C=C\\C=C/C(=O)N[C@H](C(=O)N/C=C\\C[C@H](O)C/C=C(\\C)Cl)C(C)(C)C)OC1=O [(21S)-30a]",
    "CC50": "> 1.63 µM"
  },
  {
    "COMPOUND": "COC1=CC[C@@H]([C@@H](C)/C=C(C)/C=C\\C=C/C(=O)N[C@H](C(=O)N/C=C\\C[C@@H](O)C/C=C(\\C)Cl)C(C)C)OC1=O [Compound 30c]",
    "CC50": "> 0.182 µM"
  },
  {
    "COMPOUND": "COC1=CC[C@@H]([C@@H](C)/C=C(C)/C=C\\C=C/C(=O)N[C@H](C(=O)N/C=C\\C[C@H](C/C=C(\\C)Cl)O[Si](C)(C)C(C)(C)C)C(C)(C)C)OC1=O [Compound 29a]",
    "CC50": "4.43 µM"
  }
]

Query compound follows.
Memo: COC1=CC[C@@H]([C@@H](C)/C=C(C)/C=C\C=C\C(=O)N[C@H](C(=O)N/C=C\C[C@H](C/C=C(\C)Cl)O[Si](C)(C)C(C)(C)C)C(C)(C)C)OC1=O [Compound 29e] , reported CC50: 2.36 µM
